Data origin: the supplement of paper PMC11208160

Test: recombinant barcode read abundance after kanamycin selection (control-corrected) (log10(CPM+1)); higher = more efficient recombination; sequences stand for … in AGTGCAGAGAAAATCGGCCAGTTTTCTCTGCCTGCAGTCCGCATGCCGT…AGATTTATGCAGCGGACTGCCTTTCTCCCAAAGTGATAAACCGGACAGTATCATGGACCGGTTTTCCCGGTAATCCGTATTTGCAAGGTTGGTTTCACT; site = the 11-nt target;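 further: IS621 recombinase and bridge RNA in Escherichia coli cells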
Measured recombinant barcode read abundance (log10) of individual entries
Answer using only a numeral; do not append any unit.

GTGTATCCTTGGGTTCTAACCTGTTGCTT (site GTGTATCCTAA) : 0.664
CTGTCTACTTGGGTTCTAACCTGTTGCCT (site CAGTCTACTAG) : 0.0294
CGGTGTCCTTGGGTTCTAACCTGTTGCTT (site AGGTGTCCTAA) : 0.0515
ATTAACTCTTGGGTTCTAACCTGTTGCCT (site ATTAACTCTAG) : 0.944
GAGGGCTCTTGGGTTCTAACCTGTTGCGG (site GAGGGCTCTCC) : 2.73

recombinant barcode read abundance (log10) for AACGCCTCTTGGGTTCTAACCTGTTGCCT (site AACGCCTCTAG) ?
0.389

Next up: GTGTCATCTTGGGTTCTAACCTGTTGCCT (site GTGTCATCTAG)
0.935

Next up: CTGTCGACTTGGGTTCTAACCTGTTGCCT (site CTATCCACTAG)
0.0154

Next up: ATCGGATCTTGGGTTCTAACCTGTTGCCG (site CATAACCCTAT)
0.349

Next up: TCGAAGGCTTGGGTTCTAACCTGTTGCCT (site TCAAAGGCTAG)
0.411

====

Experiment: recombinant barcode read abundance after kanamycin selection (control-corrected) (log10(CPM+1)); higher = more efficient recombination; sequences stand for … in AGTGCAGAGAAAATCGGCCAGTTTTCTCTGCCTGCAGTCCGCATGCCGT…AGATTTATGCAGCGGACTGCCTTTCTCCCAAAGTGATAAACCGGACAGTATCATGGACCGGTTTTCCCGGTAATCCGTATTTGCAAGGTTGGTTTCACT; site = the 11-nt target
Measured recombinant barcode read abundance (log10) of individual entries
Answer using only a numeral; do not append any unit.

Answered examples (5):
GGTCGAGCTTGGGTTCTAACCTGTTGCCT (site GGTCGGGCTAG) : 0.146
GTATGAGCTTGGGTTCTAACCTGTTGCCA (site TTATAAGCTTG) : 0.0331
TAGAAGACTTGGGTTCTAACCTGTTGCTA (site TAGAAGACTAA) : 0.115
AGGAGCTCTTGGGTTCTAACCTGTTGCTA (site AGGAACTCTAA) : 0.131
CTCTTAACTTGGGTTCTAACCTGTTGCGG (site CTCTTAACTCC) : 0.536

recombinant barcode read abundance (log10) for GCCCAGCCTTGGGTTCTAACCTGTTGCGG (site GCCCAGCCTCC) ?
2.71

Next up: ACGCGTTCTTGGGTTCTAACCTGTTGCAT (site ACGCGTTCTAT)
0.0272

Next up: TGTCGACCTTGGGTTCTAACCTGTTGCCT (site TGTCGACCTAG)
0.709

Next up: CATCCGACTTGGGTTCTAACCTGTTGCCT (site CATCCGTCTAG)
0.0237

Next up: GCCTGGGCTTGGGTTCTAACCTGTTGCCT (site GCCTTGGCTAG)
0.438
